- Protocol Description: In vivo PK, oral gavage, plasma
- Set-up: species or system Rat (SD)
- Protocol Conditions: SD, rat, plasma, po, 5 mg/kg, Rat (SD), 1 hr, BQL = below quantitation limit (1.00 ng/mL), read-out: Plasma concentration, mean
Item-by-item account of concentration at 1 h
Readout Type: concentration at 1 h (µg/mL)

INSERT INTO assay_data (molecule, reported_measurement) VALUES
  ('CNC(=O)Nc1ccc2nc(-c3cccs3)c(-c3cccs3)nc2c1', 0.00714),
  ('COCCNC(=O)Nc1ccc2nc(-c3cccs3)c(-c3cccs3)nc2c1 [ADG-205c]', 0.641);

* * *

- Protocol Description: Microsomal stability assay (half-life), human
- Assay type: in vitro ADME
- Protocol Conditions: Human microsomes, read-out: Microsomal stability T1/2
Please mark condition met if the recorded half-life at 2 μM is equal to or greater than 20 min, and condition not met if it falls below.

INSERT INTO assay_data (compound, class) VALUES
  ('O=C(Nc1ccc2nc(-c3cccs3)c(-c3cccs3)nc2c1)NC12CC3CC(CC(C3)C1)C2 [ADG-207]', 'condition not met'),
  ('CNC(=O)Nc1ccc2nc(-c3cccs3)c(-c3cccs3)nc2c1 [ADG-206]', 'condition met'),
  ('CCCCCNC(=O)Nc1ccc2nc(-c3cccs3)c(-c3cccs3)nc2c1 [ADG-204]', 'condition met'),
  ('COCCNC(=O)Nc1ccc2nc(-c3cccs3)c(-c3cccs3)nc2c1 [ADG-205c]', 'condition met'),
  ('CCOc1ccc2ccc(=O)oc2c1 [7-Ethoxycoumarin, reference compound]', 'condition not met');

* * *

Item-by-item account of concentration at 4 h
- Protocol Description: In vivo PK, IV dose, plasma
- Design: species or system Rat (SD)
- Protocol Conditions: SD, rat, plasma, iv, 1 mg/kg, Rat (SD), 4 hr, terminal, read-out: Plasma concentration, mean
Readout Type: concentration at 4 h

INSERT INTO assay_data (compound, reported_measurement) VALUES
  ('CCCCCNC(=O)Nc1ccc2nc(-c3cccs3)c(-c3cccs3)nc2c1', '4.49 ng/mL'),
  ('CNC(=O)Nc1ccc2nc(-c3cccs3)c(-c3cccs3)nc2c1', '3 ng/mL'),
  ('COCCNC(=O)Nc1ccc2nc(-c3cccs3)c(-c3cccs3)nc2c1 [ADG-205c]', '140 ng/mL'),
  ('O=C(Nc1ccc2nc(-c3cccs3)c(-c3cccs3)nc2c1)NC12CC3CC(CC(C3)C1)C2', '1.37 ng/mL');

* * *

- Protocol Description: In vivo PK, IV dose, plasma
- Parameters: species or system Rat (SD)
- Protocol Conditions: SD, rat, plasma, iv, 1 mg/kg, Rat (SD), 8 hr, terminal, read-out: Plasma concentration, mean
- Source text: Table 20 provides results of in vitro and in vivo pharmacokinetics performed for each of the represented compounds. Tables 4 and 5 depict the summary of rat plasma sample concentrations after administration of ADG I-204. FIG. 6 provides a summary of rat plasma and brain concentrations.
Item-by-item account of concentration at 8 h
Readout Type: concentration at 8 h

INSERT INTO assay_data (compound, readout_type, reported_measurement) VALUES
  ('CNC(=O)Nc1ccc2nc(-c3cccs3)c(-c3cccs3)nc2c1', 'concentration at 8 h', '4.98 ng/mL'),
  ('COCCNC(=O)Nc1ccc2nc(-c3cccs3)c(-c3cccs3)nc2c1 [ADG-205c]', 'concentration at 8 h', '29.1 ng/mL'),
  ('O=C(Nc1ccc2nc(-c3cccs3)c(-c3cccs3)nc2c1)NC12CC3CC(CC(C3)C1)C2', 'concentration at 8 h', '1.05 ng/mL'),
  ('CCCCCNC(=O)Nc1ccc2nc(-c3cccs3)c(-c3cccs3)nc2c1', 'concentration at 8 h', '4.27 ng/mL');
